target: human PAD4 (Homo sapiens); construct: human PAD4 (NM_012387), A2-P663, was PCR amplified; His-SUMO (N, cleaved yes); assay: In vitro PAD4 BAEE biochemical assay; conditions: BAEE substrate 3 mM, 5 nM PAD4, 2 mM calcium chloride; geometric mean of multiple experiments
Sequence (Q9UM07 2-663): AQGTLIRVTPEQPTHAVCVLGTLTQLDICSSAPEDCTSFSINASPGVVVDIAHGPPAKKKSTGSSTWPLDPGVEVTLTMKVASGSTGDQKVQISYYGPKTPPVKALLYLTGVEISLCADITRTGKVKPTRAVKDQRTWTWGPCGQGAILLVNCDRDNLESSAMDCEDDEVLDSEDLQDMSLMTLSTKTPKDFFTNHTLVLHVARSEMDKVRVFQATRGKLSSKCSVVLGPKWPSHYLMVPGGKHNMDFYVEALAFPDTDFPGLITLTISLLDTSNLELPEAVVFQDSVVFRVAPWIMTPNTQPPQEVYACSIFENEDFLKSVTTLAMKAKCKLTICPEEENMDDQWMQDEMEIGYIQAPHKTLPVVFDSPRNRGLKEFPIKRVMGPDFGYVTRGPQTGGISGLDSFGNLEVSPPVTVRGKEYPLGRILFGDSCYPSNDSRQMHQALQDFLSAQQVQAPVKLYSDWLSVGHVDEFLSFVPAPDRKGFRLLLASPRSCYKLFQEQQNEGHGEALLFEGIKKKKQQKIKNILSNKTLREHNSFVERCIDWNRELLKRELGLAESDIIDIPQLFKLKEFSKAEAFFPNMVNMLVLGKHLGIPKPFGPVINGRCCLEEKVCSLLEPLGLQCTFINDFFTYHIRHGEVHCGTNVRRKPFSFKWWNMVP
pIC50: −log10 of the molar value.
attribute.measured: pIC50

Previously resolved entries follow.
molecule	system.under.test	pIC50
COc1cc(C(=O)N2CCC[C@@H](N)C2)cc2nc(-c3cc4ccc5nc4n3C[C@@H]3C[C@H]3COCCC(=O)N[C@@H]5C)n(C)c12	human PAD4 (Homo sapiens)	6.97
C[C@H]1NC(=O)CCCCCCCn2c(-c3nc4cc(C(=O)N5[C@H]6CC[C@@H]5[C@H](N)C6)ccn4c3C3CC3)cc3ccc1nc32	human PAD4 (Homo sapiens)	7.29
COc1cc(C(=O)N2C[C@H]3CC[C@@H]2[C@@H]3N)cc2nc(-c3cc4ccc5nc4n3CCCCCCCC(=O)N[C@@H]5C)c(C)n12	human PAD4 (Homo sapiens)	7.17

a. COc1cc(C(=O)N2CCC[C@@H](N)C2)cc2nc(-c3cc4ccc5nc4n3C[C@H]3C[C@@H]3[C@H](C)OCCC(=O)N[C@@H]5C)n(C)c12
b. COc1cc(C(=O)N2C[C@H](N)[C@@H]3CC[C@H]2C3)cc2nc(-c3cc4ccc5nc4n3CC(F)(F)CCC[C@@H]3C[C@H]3C(=O)N[C@@H]5C)n(C3CC3)c12
c. COC[C@]12C[C@H]1CCCCCn1c(-c3nc4cc(C(=O)N5CC[C@@H](OC)[C@@H](N)C5)cc(OC)c4n3C)cc3ccc(nc31)[C@@H](C)NC2=O
INPUT: Order the 3 molecules from highest to lowest pIC50. List labels; respect the requested ordering.
OUTPUT: b, c, a

====

molecular target: human PAD4 (Homo sapiens); construct: human PAD4 (NM_012387), A2-P663, was PCR amplified; His-SUMO (N, cleaved yes); assay: In vitro PAD4 BAEE biochemical assay; settings: BAEE substrate 3 mM, 5 nM PAD4, 2 mM calcium chloride; geometric mean of multiple experiments
attribute.measured: IC50 (nM)

P. CO[C@@H]1CCN(C(=O)c2cc(Cl)c3c(c2)nc(-c2cc4ccc5nc4n2CC(F)(F)CCC[C@@H]2C[C@H]2C(=O)N[C@@H]5C)n3C2CC2)C[C@@H]1N
Q. C[C@H]1NC(=O)[C@@H]2C[C@@]2(F)CCCC(F)(F)Cn2c(-c3nc4cc(C(=O)N5C[C@H](N)[C@@H]6CC[C@H]5C6)cc(F)c4n3C3CC3)cc3ccc1nc32
INPUT: Compare IC50: is it lower for P or for Q ? Output the label that corresponds to your choice.
OUTPUT: Q

P. COc1cc(C(=O)N2[C@H]3CC[C@@H]2[C@H](N)C3)cc2nc(-c3cc4ccc5cc4n3CCCCCCNC(=O)c3ccccc3-5)n(C)c12
Q. C[C@H]1NC(=O)c2c(F)cncc2CCCCCn2c(-c3nc4cc(C(=O)N[C@H]5CNCC[C@@H]5F)c(F)cc4n3C3CC3)cc3ccc1nc32
R. COc1cc(C(=O)N2C[C@H](N)[C@@H]3CC[C@H]2C3)cc2nc(-c3cc4ccc5nc4n3CCCCCc3cc(F)ccc3C(=O)N[C@@H]5C)n(C)c12
INPUT: Sort low-to-high on IC50, please. List labels; respect the requested ordering.
OUTPUT: Q, R, P

a. C[C@H]1NC(=O)c2ccccc2CCCCCn2c(-c3nc4cc(C(=O)N[C@H]5CNCC[C@@H]5F)c(F)cc4n3C)cc3ccc1nc32
b. C[C@H]1NC(=O)[C@@]2(C)C[C@@H]2CCCC(F)(F)Cn2c(-c3nc4cc(C(=O)N[C@H]5CNCC[C@@H]5F)c(F)cc4n3C)cc3ccc1nc32
c. C[C@@H]1c2ccc3cc(-c4nc5cc(C(=O)N6CCC[C@@H](N)[C@H]6C)cc(F)c5n4C4CC4)n(c3n2)CCCCCc2nc3ccccc3cc2C(=O)N1C
INPUT: Order the 3 molecules from highest to lowest IC50. List labels; respect the requested ordering.
OUTPUT: b, a, c
